targetOfAssay: human Autotaxin (ATX) (Homo sapiens, UniProt Q13822)
Construct: used as template in overlapping PCR to generate a full length human ENPP2 ORF with or without a 3′-6×His tag; 6xHis (C); made in house; host or cells: FreeStyle 293-F cells (transient transfection, protein purified from culture supernatant)
procedureSummary: Human ATX enzyme inhibition assay (LPC substrate, choline oxidase/HRP/Amplex Red coupled format)
Format: biochemical
assaySetup: recombinant hATX 1 nM, 18:1 LPC 30 μM, fluorescence at 90 min minus 5 min
Description: Human ATX Enzyme Inhibition Assay To identify inhibitors of the human Autotaxin (ATX) enzyme an in-vitro biochemical profiling assay has been developed using lysophosphatidylcholine (LPC) as substrate and recombinant enzyme. […] ATX is diluted to 2.2 nM in assay buffer. […] Fluorescence is measured at 5 mins (for background subtraction) and 90 mins. […] Fluorescence at 5-minutes is subtracted from the 90-minute end point data and normalized with respect to the positive control. IC50 values are calculated. […]
propertyName: IC50 (nM)
Answers are plain numbers, in nM.

Illustrative cases are given below, each with its answer.
O=C(c1cnc(NC2Cc3ccc(Cl)c(Cl)c3C2)nc1)N1CCC12COC2 (centres unmarked) [Example 3] : 128
N#Cc1cc(Cl)cc2c1CC(Nc1ncc(C(=O)N3CCC34COC4)cn1)C2 (centres unmarked) [Example 4] : 20.8
O=C(c1cnc(NC2Cc3cc(Cl)cc(F)c3C2)nc1)N1CCC12COC2 (single isomer, unassigned) [Example 16] : 45.1

Provide the reported IC50 of each entry below, same order.
1. O=C(c1cnc(NC2Cc3cc(Cl)cc(F)c3C2)nc1)N1CCC12COC2 (racemic) [Example 8]
2. N#Cc1cc(Cl)cc2c1C[C@@H](Nc1ncc(C(=O)N3CCC34CC(F)(F)C4)cn1)C2 [Example 13]

Response given:
1. 111
2. 3
